Biological target: hGLP-1R (Homo sapiens, UniProt P43220)
Sequence (P43220 24-463): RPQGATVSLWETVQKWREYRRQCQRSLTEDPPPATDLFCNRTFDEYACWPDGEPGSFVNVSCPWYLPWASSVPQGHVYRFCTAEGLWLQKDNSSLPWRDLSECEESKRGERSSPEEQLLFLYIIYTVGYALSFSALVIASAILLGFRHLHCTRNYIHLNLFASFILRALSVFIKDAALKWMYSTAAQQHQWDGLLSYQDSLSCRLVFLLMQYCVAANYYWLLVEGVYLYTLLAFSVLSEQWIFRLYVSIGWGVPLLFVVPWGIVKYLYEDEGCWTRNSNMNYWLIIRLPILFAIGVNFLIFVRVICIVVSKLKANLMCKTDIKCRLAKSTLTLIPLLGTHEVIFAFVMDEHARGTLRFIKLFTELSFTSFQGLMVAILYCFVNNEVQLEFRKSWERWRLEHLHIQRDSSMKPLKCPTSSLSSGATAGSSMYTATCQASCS
Test: cell-based or functional assay
Starred links: 1 amine or outer side, 2 acyl side, 3 side chain; linkers in the order of their positions; H or OH if unused. Non-standard residues stand in square brackets, D forms with d. Groups on a side chain read outwards from the residue. No end group written: not given here. *: point of attachment. C20 diacid = O=C(O)CCCCCCCCCCCCCCCCCCC(=O)*; γGlu = O=C(O)[C@H](CCC(=O)[*:2])N[*:1]; NMeY = CN[C@@H](Cc1ccc(O)cc1)C(=O)O; αMeF = C[C@](N)(Cc1ccccc1)C(=O)O; AEEA = NCCOCCOCC(=O)O; Aib = CC(C)(N)C(=O)O
The label is 1 (yes) for Relative cAMP EC50 below 1 nM and 0 (no) for Relative cAMP EC50 equal to or exceeding 1 nM.

| BINDER | CAT |
| --- | --- |
| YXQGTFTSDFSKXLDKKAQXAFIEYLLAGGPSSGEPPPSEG (Aib, αMeL; acylated Lys; C-terminal amide; synthetic construct; SITE 2: note = 2-Aminoisobutyric Acid; SITE 13: note = alpha-methyl-leucine; SITE 17: note = Lysine is chemically modified through conjugation of the epsilon-amino group of the Lysine side chain with (2-[2-(2-Amino-ethoxy)-ethoxy]-acetyl)-(gamma-Glu)-CO-(CH2) 18-CO2H; SITE 20: n) [Example 1] | 0 (no) |
| YXQGTFTSDXSQXLDXKAQXAFIEYLIEAGPSSGEPPPSGS (not fully specified; non-natural residues, (γGlu)2-C18 diacid lysine acylation, C-terminal amide; synthetic construct; SITE 2: note = 2-Aminoisobutyric Acid; SITE 10: note = 3-(4-Pyridyl)-L-alanine; SITE 13: note = alpha-methyl-leucine; SITE 16: note = L-ornithine; SITE 17: note = Lysine is chemically modified through conjugation of the epsilon-amino group of the Lysine side chain with (gamma-Gl)) [Example 1019] | 0 (no) |
| YXQGTXTSDXXIXLDXKAQXEFIEXLIEGGPPSXXPPPXGE (non-natural residues; acylated Lys; C-terminal amide; synthetic construct; SITE 2: note = 2-Aminoisobutyric Acid; SITE 6: note = alpha-methyl-2-fluoro-L-phenylalanine; SITE 10: note = 3-(4-Pyridyl)-L-alanine; SITE 11: note = alpha-methyl-L-serine; SITE 13: note = alpha-methyl-leucine; SITE 16: note = L-ornithine; SITE 17: note = Lysine is chemically mo) [Example 1195] | 1 (yes) |
| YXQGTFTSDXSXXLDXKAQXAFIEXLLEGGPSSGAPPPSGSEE (Aib, 4Pal, Orn, αMeL, αMeY; lipidated Lys; C-terminal amide; synthetic construct; SITE 2: note = 2-Aminoisobutyric Acid; SITE 10: note = 3-(4-Pyridyl)-L-alanine; SITE 12: note = L-ornithine; SITE 13: note = alpha-methyl-leucine; SITE 16: note = L-ornithine; SITE 17: note = Lysine is chemically modified through conjugation of the epsilon-amino group of the Lys) [Example 1065] | 0 (no) |
| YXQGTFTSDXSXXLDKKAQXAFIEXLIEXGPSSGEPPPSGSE (Aib, 4Pal, Me4Pal, Orn, alpha-methyl-Leu, lipidated Lys, amide; synthetic construct; SITE 2: note = 2-Aminoisobutyric Acid; SITE 10: note = 3-(4-Pyridyl)-L-alanine; SITE 12: note = L-ornithine; SITE 13: note = alpha-methyl-leucine; SITE 17: note = Lysine is chemically modified through conjugation of the epsilon-amino group of the Lysine side chain with (gamma-Gl)) [Example 990] | 0 (no) |
| YXQGTXTSDXXIXLDXKAQXXFIEYLLEGGPSSGEPPPSGTE (synthetic construct; SITE 2: note = 2-Aminoisobutyric Acid; SITE 6: note = alpha-methyl-2-fluoro-L-phenylalanine; SITE 10: note = 3-(4-Pyridyl)-L-alanine; SITE 11: note = alpha-methyl-L-serine; SITE 13: note = alpha-methyl-leucine; SITE 16: note = L-ornithine; SITE 17: note = Lysine is chemically mo) [Example 532] | 1 (yes) |
| YXQGTFTSDXSXXLDKKAQXAFIEYLLEAGPSSGAPPPSGX (synthetic construct; SITE 2: note = 2-Aminoisobutyric Acid; SITE 10: note = 3-(4-Pyridyl)-L-alanine; SITE 12: note = L-ornithine; SITE 13: note = alpha-methyl-leucine; SITE 17: note = Lysine is chemically modified through conjugation of the epsilon-amino group of the Lysine side chain with (2-[2-(2-) [Example 274] | 0 (no) |
| YXQGTFTSDXSXXLDKKAQXAFIEYLIAGGPSSGAPPPSESE (not fully specified; synthetic construct; SITE 2: note = 2-Aminoisobutyric Acid; SITE 10: note = 3-(4-Pyridyl)-L-alanine; SITE 12: note = L-ornithine; SITE 13: note = alpha-methyl-leucine; SITE 17: note = Lysine is chemically modified through conjugation of the epsilon-amino group of the Lysine side chain with (gamma-Gl)) [Example 1010] | 0 (no) |
| YXQGTFTSDXSXXLDKKAQXAFIEYLIAGGPSSGEPPPSGE (synthetic construct; SITE 2: note = 2-Aminoisobutyric Acid; SITE 10: note = 3-(4-Pyridyl)-L-alanine; SITE 12: note = L-ornithine; SITE 13: note = alpha-methyl-leucine; SITE 17: note = Lysine is chemically modified through conjugation of the epsilon-amino group of the Lysine side chain with (gamma-Gl)) [Example 979] | 0 (no) |
| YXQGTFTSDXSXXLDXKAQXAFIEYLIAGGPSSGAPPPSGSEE (acylated Lys, C-terminal amide, non-natural residues; synthetic construct; SITE 2: note = 2-Aminoisobutyric Acid; SITE 10: note = 3-(4-Pyridyl)-L-alanine; SITE 12: note = L-ornithine; SITE 13: note = alpha-methyl-leucine; SITE 16: note = L-ornithine; SITE 17: note = Lysine is chemically modified through conjugation of the epsilon-amino group of the Lys) [Example 1059] | 0 (no) |
| YXQGTXTSDXSIXLDKKAQXAFIEYLAEGGPSSGEPPPSGSEE (non-natural residues; acylated Lys; C-terminal amide; synthetic construct; SITE 2: note = 2-Aminoisobutyric Acid; SITE 6: note = alpha-methyl-2-fluoro-L-phenylalanine; SITE 10: note = 3-(4-Pyridyl)-L-alanine; SITE 13: note = alpha-methyl-leucine; SITE 17: note = Lysine is chemically modified through conjugation of the epsilon-amino group of the Lysine) [Example 631] | 1 (yes) |
| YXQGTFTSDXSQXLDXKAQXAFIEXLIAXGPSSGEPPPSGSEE (non-natural residues, AEEA-γGlu-diacid acylated Lys, C-terminal amide; synthetic construct; SITE 2: note = 2-Aminoisobutyric Acid; SITE 10: note = 3-(4-Pyridyl)-L-alanine; SITE 13: note = alpha-methyl-leucine; SITE 16: note = L-ornithine; SITE 17: note = Lysine is chemically modified through conjugation of the epsilon-amino group of the Lysine side chain with (2-[2-(2-) [Example 1099] | 1 (yes) |
| YXQGTFTSDXSKXLDKKAQXAFIEYLIEXGESSGEPPPSGS (synthetic construct; SITE 2: note = 2-Aminoisobutyric Acid; SITE 10: note = 3-(4-Pyridyl)-L-alanine; SITE 13: note = alpha-methyl-leucine; SITE 17: note = Lysine is chemically modified through conjugation of the epsilon-amino group of the Lysine side chain with (2-[2-(2-Amino-ethoxy)-ethoxy]-acetyl)) [Example 282] | 0 (no) |
| YXQGTFTSDFSKXLDKKAQXAFIEYLLAGGPSSGEPPPGEG (Lys acylated; non-natural residues; C-amide; synthetic construct; SITE 2: note = 2-Aminoisobutyric Acid; SITE 13: note = alpha-methyl-leucine; SITE 17: note = Lysine is chemically modified through conjugation of the epsilon-amino group of the Lysine side chain with (2-[2-(2-Amino-ethoxy)-ethoxy]-acetyl)-(gamma-Glu)-CO-(CH2) 18-CO2H; SITE 20: n) [Example 31] | 0 (no) |
| YXQGTFTSDFSXXLDKKAQXAFIEYLLEXGPSSGAPPPSEG (synthetic construct; SITE 2: note = 2-Aminoisobutyric Acid; SITE 12: note = L-ornithine; SITE 13: note = alpha-methyl-leucine; SITE 17: note = Lysine is chemically modified through conjugation of the epsilon-amino group of the Lysine side chain with (2-[2-(2-Amino-ethoxy)-ethoxy]-acetyl)-(gamma-Glu)) [Example 61] | 0 (no) |
| YXQGTXTSDXSILLDXKAQXAFIEXLEEGGPSSGAPPPSGTGE (synthetic construct; SITE 2: note = 2-Aminoisobutyric Acid; SITE 6: note = alpha-methyl-2-fluoro-L-phenylalanine; SITE 10: note = 3-(4-Pyridyl)-L-alanine; SITE 16: note = L-ornithine; SITE 17: note = Lysine is chemically modified through conjugation of the epsilon-amino group of the Lysine side chai) [Example 665 (SEQ ID NO: 671)] | 1 (yes) |
| YXQGTFTSDXSQXLDXKAQXQFIEXLIAXGPSSGEPPPSGSEE (not fully specified; Aib, 4Pal, Orn, Me4Pal, αMeY; lipidated Lys; C-terminal amide; synthetic construct; SITE 2: note = 2-Aminoisobutyric Acid; SITE 10: note = 3-(4-Pyridyl)-L-alanine; SITE 13: note = alpha-methyl-leucine; SITE 16: note = L-ornithine; SITE 17: note = Lysine is chemically modified through conjugation of the epsilon-amino group of the Lysine side chain with D-Glutami) [Example 1106] | 1 (yes) |
| [NMeY][Aib]QGT[αMeF]TSDYSILLDKIAAK([AEEA-AEEA-γGlu-C20 diacid])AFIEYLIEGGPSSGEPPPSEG-NH2 [Example 299] | 1 (yes) |
| YXQGTXTSDXSIXLDXKAQXEFIEXLLEGGPSSGAPPPSGE (Aib, αMeF(2F), 4Pal, Orn, Me4Pal, αMeY; acylated lysine; amide; synthetic construct; SITE 2: note = 2-Aminoisobutyric Acid; SITE 6: note = alpha-methyl-2-fluoro-L-phenylalanine; SITE 10: note = 3-(4-Pyridyl)-L-alanine; SITE 13: note = alpha-methyl-leucine; SITE 16: note = L-ornithine; SITE 17: note = Lysine is chemically modified through conjugation of the epsil) [Example 615] | 1 (yes) |
| YXQGTFTSDXSXXLDXKAQXAFIEXLLEGGPSSGAPPPSGS (synthetic construct; SITE 2: note = 2-Aminoisobutyric Acid; SITE 10: note = 3-(4-Pyridyl)-L-alanine; SITE 12: note = L-ornithine; SITE 13: note = alpha-methyl-leucine; SITE 16: note = L-ornithine; SITE 17: note = Lysine is chemically modified through conjugation of the epsilon-amino group of the Lys) [Example 933] | 0 (no) |
| YXQGTXTSDXXIXLDXKAQXEFIEXLIEGGPSSGEPPPEGE (non-natural residues; AEEA-γGlu-C18 diacid on Lys; C-terminal amide; synthetic construct; SITE 2: note = 2-Aminoisobutyric Acid; SITE 6: note = alpha-methyl-2-fluoro-L-phenylalanine; SITE 10: note = 3-(4-Pyridyl)-L-alanine; SITE 11: note = alpha-methyl-L-serine; SITE 13: note = alpha-methyl-leucine; SITE 16: note = L-ornithine; SITE 17: note = Lysine is chemically mo) [Example 1149] | 1 (yes) |
| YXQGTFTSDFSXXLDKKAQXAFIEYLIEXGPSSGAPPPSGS (synthetic construct; SITE 2: note = 2-Aminoisobutyric Acid; SITE 12: note = (S)-2,3-diaminopropanoic acid; SITE 13: note = alpha-methyl-leucine; SITE 17: note = Lysine is chemically modified through conjugation of the epsilon-amino group of the Lysine side chain with (2-[2-(2-Amino-ethoxy)-ethoxy]-a)) [Example 800] | 1 (yes) |
| YXQGTXTSDXXIXLDXXAQXEFIEXLIEGGPSSGAPPPSGSE (synthetic construct; SITE 2: note = 2-Aminoisobutyric Acid; SITE 6: note = alpha-methyl-2-fluoro-L-phenylalanine; SITE 10: note = 3-(4-Pyridyl)-L-alanine; SITE 11: note = alpha-methyl-L-serine; SITE 13: note = alpha-methyl-leucine; SITE 16: note = L-ornithine; SITE 17: note = Ornithine is chemically) [Example 1212] | 1 (yes) |
